procedure-summary: Primary qHTS for Vero E6 cytotoxicity: counterscreen for inhibitors of SARS-S pseudo-typed particle cell entry (AID 1479150); on activity change, negative = cytotoxicity: on the % scale 0 is the no-effect control and ±100 the full control effect
setup-conditions: cell viability; series mostly up to 57.1 µM
Inconclusive results are not listed. Active and inactive are the calls of the source. The call rests on the fitted dose curve.
readout-kind: activity change, negative = cytotoxicity

Example results:
{"compound": "CCC(=O)O[C@@H]1CC(=O)O[C@H](C)C/C=C/C=C/[C@@H](O)[C@H](C)C[C@H](CC=O)[C@H](OC2O[C@H](C)[C@@H](O[C@H]3C[C@@](C)(O)[C@@H](OC(=O)CC)[C@H](C)O3)[C@H](N(C)C)[C@H]2O)[C@H]1OC (some centres undefined)", "activity change, negative = cytotoxicity": "inactive"}
{"compound": "CC1=C(C(=O)OCCN(Cc2ccccc2)c2ccccc2)C(c2cccc([N+](=O)[O-])c2)C(P2(=O)OCC(C)(C)CO2)=C(C)N1 (centres undefined)", "activity change, negative = cytotoxicity": "inactive"}
{"compound": "CC1(C)S[C@@H]2[C@H](NC(=O)C(C(=O)Oc3ccc4c(c3)CCC4)c3ccccc3)C(=O)N2[C@H]1C(=O)O (some centres undefined)", "activity change, negative = cytotoxicity": "inactive"}
{"compound": "O=C(CCCN1CCC(n2c(=S)[nH]c3ccccc32)CC1)c1ccc(F)cc1", "activity change, negative = cytotoxicity": "inactive"}

Entry `C=Cc1c(C)c2cc3nc(c(CC(=O)N[C@@H](CC(=O)O)C(=O)O)c4nc(cc5[nH]c(cc1[nH]2)c(C)c5CC)C(C)=C4C(=O)O)[C@@H](CCC(=O)O)[C@@H]3C` has what activity change, negative = cytotoxicity?
inactive

Same again, this time with Nc1c(Br)cc(Br)cc1CNC1CCC(O)CC1 (centres undefined)
inactive

Same again, this time with `O=C(O)[C@@H]1CCCN1`
inactive

Same again, this time with `CCCCN(CCCC)C(=S)[S-].CCCCN(CCCC)C(=S)[S-].[Zn+2]`
inactive

###

procedure-summary: qHTS Counterscreen for compound interference against the NCATS DSHEA and TCM libraries (AID 1919978);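 further: compounds preincubated with 1 µM D-luciferin or buffer before detection reagent; % of control where 0% means no effect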
setup-conditions: firefly luciferase detection reagent interference, luminescence
readout-kind: max response (%)
Just the number in %, nothing appended.

Entry `COC1=CC(=O)O[C@@H](/C=C/c2ccc3c(c2)OCO3)C1` has what max response?
0.0511

Same again, this time with `C=C(C)[C@@H]1CCC(C)=C[C@H]1c1c(O)cc(CCCCC)cc1O`
0.918

Same again, this time with COC1=CC(=O)OC(CCc2ccccc2)C1 (stereo unspecified)
2.83

Same again, this time with `C=C[C@H]1CN2CCc3c([nH]c4ccccc34)[C@H]2C[C@@H]1/C(=C\OC)C(=O)OC`
-1.5

Same again, this time with `COC1=C[C@@]23CCN(C)[C@H](Cc4ccc(OC)c(O)c42)C3=CC1=O`
-3.14

Same again, this time with `COc1cc2c(cc1O)C[C@H]1c3c(cc(OC)c(O)c3-2)CCN1C`
-3.09

###

procedure-summary: qHTS Assay for Lipid Storage Modulators (AID 1519)
setup-conditions: Drosophila S3 cells, BODIPY lipid droplet/cell ratio, laser cytometry; measured here: cell count channel max response; cells loaded with oleic acid
Experimental: NIH Molecular Libraries Probe Production Centers Network [MLPCN] NIH Chemical Genomics Center [NCGC] Assay Submitter (PI): Beller, Mathias; Max-Planck-Institut fur Biophysikalische Chemie […] We dispensed 4 uL of cells at 1.25 x 10^6 cells/mL into LoBase Aurora COC 1,536-well plates (black walled, clear bottom) with a bottle-valve solenoid-based dispenser (Aurora) to obtain 5,000 cells/well. […] The ratio of the total intensity in PMT channel 1 over total intensity of channel 3 was also calculated. […]
Records with an inconclusive call do not appear.
Rule: max response under 10% gives No, otherwise Yes.

{"compound": "NC(N)=NN=Cc1c(Cl)cccc1Cl", "label-class": "No"}
{"compound": "NC(CO)Cc1ccccc1 (stereo not given)", "label-class": "Yes"}
{"compound": "C[C@H]1CN(C2CCC(C#N)(c3ccc(F)cc3)CC2)CC[C@@]1(C(=O)O)c1ccccc1 (stereo not given in full)", "label-class": "No"}
{"compound": "CCC(C)C(=O)OC1C(O)C2C(CN3CC(C)CCC3[C@]2(C)O)C2C[C@]34O[C@@]5(O)C(OC(=O)C(C)(O)C(C)O)CCC3(C)C5C(OC(C)=O)C(OC(C)=O)C4[C@@]21O (stereo not given in full)", "label-class": "Yes"}

# evaluate next
Is the recorded value of max response equal to or greater than 10% for this compound? CNC(Cc1c[nH]c2ccccc12)C(=O)O (stereo not given)
Yes
